Assay: probe aLefty1 binding on compound microarray – biochemical, small-molecule microarray, 635/667 nm fluorescence, primary screen (AID 1153);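 note: score merges spot fluorescence with signal-to-noise ratio from the scanned slide images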
Details: higher = more signal

{"columns": ["molecule", "composite z-score"],
 "data": [
  ["O=C1O[C@@H](c2ccccc2)[C@@H](c2ccccc2)N2[C@@H](c3ccc(OCCO)cc3)[C@]3(C(=O)Nc4ccc(C#CC5=CCCCC5)cc43)[C@@H](C(=O)NC[C@H](O)c3ccccc3)[C@H]12", 1.38],
  ["C=CC[C@]1(C(=O)N2CCCCC2)N=C(c2ccc(OCCCO)cc2)O[C@H]1c1ccccc1CN=[N+]=[N-]", 0.454],
  ["COc1ccc(C#Cc2ccc3c(c2)[C@]2(C(=O)N3)[C@H](c3ccc(O)cc3)N3[C@H](c4ccccc4)[C@H](c4ccccc4)OC(=O)[C@H]3[C@@H]2C(=O)Nc2nc3ccccc3s2)cc1", 0.0994]
]}
